# assayed_target: GCGR (Homo sapiens, UniProt P47871)
# Sequence (P47871 26-477, species assumed): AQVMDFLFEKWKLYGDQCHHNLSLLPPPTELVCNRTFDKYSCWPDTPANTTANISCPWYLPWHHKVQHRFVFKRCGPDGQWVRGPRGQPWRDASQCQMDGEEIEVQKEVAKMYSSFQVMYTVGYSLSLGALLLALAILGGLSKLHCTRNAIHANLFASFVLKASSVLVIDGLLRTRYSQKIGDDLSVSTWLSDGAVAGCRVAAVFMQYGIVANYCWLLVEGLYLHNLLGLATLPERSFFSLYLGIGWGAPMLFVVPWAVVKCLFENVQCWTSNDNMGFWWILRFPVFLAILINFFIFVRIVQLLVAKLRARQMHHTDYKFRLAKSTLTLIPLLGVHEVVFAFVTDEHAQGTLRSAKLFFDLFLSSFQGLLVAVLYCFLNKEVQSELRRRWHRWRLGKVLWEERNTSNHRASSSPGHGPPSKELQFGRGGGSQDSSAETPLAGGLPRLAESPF
# run_description: I125-glucagon binding assay (competition, GCGR membrane fractions)
# Set-up: expressed in transfected cells; host or cells: CHO-K1
# run_conditions: competition with I125-glucagon 0.0625 nM; membrane fractions from GCGR overexpressed CHO-K1 cells
value_kind: IC50

Example entries and their recorded answers appear below.
>  <compound>
CCOC(=O)CCNC(=O)c1ccc(NC(c2ccc(-c3nnc(C(C)(C)C)o3)cc2)C(C)C)cc1 (stereo not drawn)

>  <result>
18700 nM

$$$$
>  <compound>
CCOC(=O)CCNC(=O)c1ccc(N[C@H](c2ccc(-c3noc(-c4ccccc4)n3)cc2)C(C)C)cc1

>  <result>
634 nM

$$$$
>  <compound>
CC(C)C(Nc1ccc(C(=O)NCCC(=O)O)cc1)c1ccc(-c2nnc(C(F)(F)F)o2)cc1 (stereo not drawn)

>  <result>
433 nM

$$$$
>  <compound>
CCCC[C@@H](Nc1ccc(C(=O)NCCC(=O)O)cc1)c1ccc(-c2nnc(-c3ccccn3)o2)cc1

>  <result>
702 nM

$$$$
>  <compound>
CCC(C)C(Nc1ccc(C(=O)NCCC(=O)O)cc1)c1ccc(-c2nnc(C(C)(C)C)o2)cc1 (stereo not drawn)

>  <result>
246 nM

$$$$

Lab book: IC50 of CC(C)C[C@@H](Nc1ccc(C(=O)NCCC(=O)O)cc1)c1ccc(-c2nnc(-c3ccccc3)o2)cc1 noted as 876 nM

Lab book: IC50 of CCCCC(Nc1ccc(C(=O)NCCC(=O)O)cc1)c1ccc(-c2noc(-c3cccs3)n2)cc1 (stereo not drawn) noted as 126 nM

Lab book: IC50 of CCCCC(Nc1ccc(C(=O)NCCC(=O)O)cc1)c1ccc(-c2nnc(-c3ccccn3)o2)cc1 (stereo not drawn) noted as 203 nM

Lab book: IC50 of CC(C)[C@@H](Nc1ccc(C(=O)NCCC(=O)O)cc1)c1ccc(-c2nnc(C(F)(F)F)o2)cc1 noted as 875 nM

Lab book: IC50 of CCOC(=O)CCNC(=O)c1ccc(N[C@@H](c2ccc(-c3noc(-c4ccccc4)n3)cc2)C(C)CC)cc1 (stereo partly drawn) noted as 217 nM

Lab book: IC50 of CCCC[C@H](Nc1ccc(C(=O)NCCC(=O)O)cc1)c1ccc(-c2noc(C(F)(F)F)n2)cc1 noted as 254 nM

Lab book: IC50 of CCCC[C@H](Nc1ccc(C(=O)NCCC(=O)OCC)cc1)c1ccc(-c2nnc(-c3ccccn3)o2)cc1 noted as 1480 nM

Lab book: IC50 of CCCCC(Nc1ccc(C(=O)NCCC(=O)OC)cc1)c1ccc(-c2nnc(-c3ccccn3)o2)cc1 (stereo not drawn) noted as 1580 nM

Lab book: IC50 of CCOC(=O)CCNC(=O)c1ccc(NC(CC(C)C)c2ccc(-c3nnc(-c4ccc(F)cc4)o3)cc2)cc1 (stereo not drawn) noted as > 30000 nM

Lab book: IC50 of CC(C)[C@@H](Nc1ccc(C(=O)NCCC(=O)O)cc1)c1ccc(-c2nnc(-c3ccccc3)o2)cc1 noted as 2920 nM

* * *

# assayed_target: UniProt:P47871
# run_description: I125-glucagon binding assay (competition, GCGR membrane fractions)
# Set-up: expressed in transfected cells; host or cells: CHO-K1
# run_conditions: competition with I125-glucagon 0.0625 nM; membrane fractions from GCGR overexpressed CHO-K1 cells
# Description: I^125-Glucagon Binding Assay The binding affinity of each compound was evaluated by a competition assay with I^125-glucagon. GCGR membrane fractions were obtained from GCGR overexpressed CHO-K1 cells as a stock of 1 mg/ml concentration. […] The residual isotope was detected by Hidex CHAMELEON V micro-beta counter and the IC50 value of each compound binding to GCGR was calculated with non-linear regression.
Mark each entry True if its IC50 sits below 0.2 µM, and False for all others.

Reference set (3 entries):
>  <compound>
CC(C)C(Oc1ccc(-c2nc3ccccc3o2)cc1)c1ccc(C(=O)NCCC(=O)O)cc1 (stereo not shown) [Compound 7-2]

>  <class_assignment>
True

$$$$
>  <compound>
CCCCC(Nc1ccc(C(=O)NCCC(=O)OCC)cc1)c1ccc(-c2noc(C(C)(C)C)n2)cc1 (stereo not shown) [Compound 2-3]

>  <class_assignment>
False

$$$$
>  <compound>
CC(C)C(Nc1ccc(-c2noc(-c3ccccc3)n2)cc1)c1ccc(C(=O)NCCC(=O)O)cc1 (stereo not shown) [Compound 3-11]

>  <class_assignment>
False

$$$$

In plain terms, does CCOC(=O)CCNC(=O)c1ccc(N[C@@H](c2ccc(-c3nnc(C(F)(F)F)o3)cc2)C(C)CC)cc1 (stereo partly shown) [Compound 1-35] come in under 0.2 µM for IC50?
False

In plain terms, does CCC(C)C(Nc1ccc(C(=O)NCCC(=O)O)cc1)c1ccc(-c2nnc(-c3ccccc3)o2)cc1 (stereo not shown) [Compound 1-11] come in under 0.2 µM for IC50?
True

In plain terms, does CCOC(=O)CCNC(=O)c1ccc(N[C@@H](CC(C)C)c2ccc(-c3noc(-c4ccccc4)n3)cc2)cc1 [Compound 2-41] come in under 0.2 µM for IC50?
False

In plain terms, does CCOC(=O)CCNC(=O)c1ccc(NC(CC(C)C)c2ccc(-c3noc(C(C)(C)C)n3)cc2)cc1 (stereo not shown) [Compound 2-5] come in under 0.2 µM for IC50?
False

* * *

# assayed_target: UniProt P47871
# run_description: I125-glucagon binding assay (competition, GCGR membrane fractions)
# Set-up: expressed in transfected cells; host or cells: CHO-K1
# run_conditions: competition with I125-glucagon 0.0625 nM; membrane fractions from GCGR overexpressed CHO-K1 cells
Mark each entry fulfilled if its IC50 sits below 800 nM, and not fulfilled for all others.

>  <molecule>
CCCCC(Nc1ccc(C(=O)NCCC(=O)O)cc1)c1ccc(-c2nnc(C(F)(F)F)o2)cc1 (stereo not drawn)

>  <class_assignment>
fulfilled

$$$$
>  <molecule>
CCOC(=O)CCNC(=O)c1ccc(N[C@H](CC(C)C)c2ccc(-c3nc4ccccc4o3)cc2)cc1

>  <class_assignment>
not fulfilled

$$$$
>  <molecule>
CC(C)CC(Nc1ccc(C(=O)NCCC(=O)O)cc1)c1ccc(-c2noc(-c3ccccc3)n2)cc1 (stereo not drawn)

>  <class_assignment>
fulfilled

$$$$

In plain terms, does CCCCC(Nc1ccc(-c2nnc(-c3ccccc3)o2)cc1)c1ccc(C(=O)NCCC(=O)O)cc1 (stereo not drawn) come in under 800 nM for IC50?
fulfilled

In plain terms, does CCCC[C@H](Nc1ccc(C(=O)NCCC(=O)O)cc1)c1ccc(-c2nc3ccccc3o2)cc1 come in under 800 nM for IC50?
fulfilled

In plain terms, does CCOC(=O)CCNC(=O)c1ccc(N[C@H](c2ccc(-c3nnc(-c4ccccc4)o3)cc2)C(C)CC)cc1 (stereo partly drawn) come in under 800 nM for IC50?
fulfilled

In plain terms, does CCCC[C@@H](Nc1ccc(C(=O)NCCC(=O)O)cc1)c1ccc(-c2noc(C(F)(F)F)n2)cc1 come in under 800 nM for IC50?
not fulfilled

In plain terms, does CC(C)[C@H](Nc1ccc(C(=O)NCCC(=O)O)cc1)c1ccc(-c2nnc(-c3ccccc3)o2)cc1 come in under 800 nM for IC50?
fulfilled

In plain terms, does CCCC[C@H](Nc1ccc(C(=O)NCCC(=O)O)cc1)c1ccc(-c2noc(-c3ccccn3)n2)cc1 come in under 800 nM for IC50?
fulfilled

In plain terms, does CCCC[C@H](Nc1ccc(C(=O)NCCC(=O)OCC)cc1)c1ccc(-c2nc(-c3ccccc3)no2)cc1 come in under 800 nM for IC50?
not fulfilled

In plain terms, does CCOC(=O)CCNC(=O)c1ccc(N[C@@H](CC(C)C)c2ccc(-c3nnc(-c4ccccc4)o3)cc2)cc1 come in under 800 nM for IC50?
not fulfilled

In plain terms, does CC(C)[C@H](Nc1ccc(C(=O)NCCC(=O)O)cc1)c1ccc(-c2noc(-c3ccccc3)n2)cc1 come in under 800 nM for IC50?
fulfilled

In plain terms, does CCCC[C@@H](Nc1ccc(C(=O)NCCC(=O)OCC)cc1)c1ccc(-c2nnc(C(F)(F)F)o2)cc1 come in under 800 nM for IC50?
not fulfilled

In plain terms, does CCCC(Nc1ccc(C(=O)NCCC(=O)OCC)cc1)c1ccc(-c2nnc(-c3ccccc3)o2)cc1 (stereo not drawn) come in under 800 nM for IC50?
not fulfilled

* * *

# assayed_target: GCGR (Homo sapiens, UniProt P47871)
# run_description: I125-glucagon binding assay (competition, GCGR membrane fractions)
# Design: expressed in transfected cells; host or cells: CHO-K1
# run_conditions: competition with I125-glucagon 0.0625 nM; membrane fractions from GCGR overexpressed CHO-K1 cells
value_kind: IC50 (nM)
Hi! Could you send only the number? It should be in nM, unit omitted.

Example entries and their recorded answers appear below.
>  <compound>
CCC(C)[C@H](Nc1ccc(C(=O)NCCC(=O)O)cc1)c1ccc(-c2noc(C(F)(F)F)n2)cc1 (stereo partly drawn)

>  <assayed_target>
GCGR (Homo sapiens, UniProt P47871)

>  <uom>
nM

>  <measured_number>
166

$$$$
>  <compound>
CC(C)CC(Nc1ccc(C(=O)NCCC(=O)O)cc1)c1ccc(-c2nnc(C(F)(F)F)o2)cc1 (stereo not drawn)

>  <assayed_target>
GCGR (Homo sapiens, UniProt P47871)

>  <uom>
nM

>  <measured_number>
956

$$$$

Test item CCOC(=O)CCNC(=O)c1ccc(N[C@H](c2ccc(-c3nc4ccccc4s3)cc2)C(C)C)nc1 ; GCGR (Homo sapiens, UniProt P47871); reported IC50 was 127

Test item CCC(C)C(Nc1ccc(-c2nnc(-c3ccc(F)cc3)o2)cc1)c1ccc(C(=O)NCCC(=O)O)cc1 (stereo not drawn) ; GCGR (Homo sapiens, UniProt P47871); reported IC50 was 74

Test item CC(C)C[C@H](Nc1ccc(C(=O)NCCC(=O)O)cc1)c1ccc(-c2nc3ccccc3o2)cc1 ; GCGR (Homo sapiens, UniProt P47871); reported IC50 was 83
